Test system: Plasmodium berghei
Assay: Luciferase/luciferin-expressing antifolate-resistant parasites were used to infect a culture of HepG2 cells that were pre-incubated with compounds. Infected hepatocytes emit light due to the luciferase reaction. Assay results are presented as the percent inhibition of light emission compared to control. […]
Format: functional
Settings: sporozoite, HEPG2TOX_HILL_SLOPE 2.71, HEPG2TOX_R_SQUARED 0.929, read-out: LUCIFERASE INFECTION ASSAY - IC50
pIC50: −log10 of the molar value.
REPORTED_METRIC: pIC50

The value of pIC50 measured for the compound `CNc1nc2cnc(Nc3cccc(C(F)(F)F)c3)cc2n1Cc1ccco1` turned out to be < 5.00
